- test: Inhibition of amyloid beta (1 to 40) aggregation assessed as inhibition of fibril formation at 100 uM by thioflavin T fluorescent dye assay
Criterion: inhibition meeting or surpassing 40%. Met: TRUE. Not met: FALSE.

Exam item: Could you please find out whether `O=C1C(=C/N=N/c2ccc(Cl)cc2)Nc2ccccc21` has inhibition that meets 40% or exceeds it?
Marked response: FALSE

Exam item: Confirm if inhibition reported for the molecule `Cc1ccc(NNC=C2C(=O)c3ccccc3C2=O)cc1` is 40% or above.
Marked response: TRUE

Exam item: # bool: inhibition of `O=C1C(=CNNc2ccccc2)C(=O)c2ccccc21` >= 40%
Marked response: TRUE

Exam item: Hello, I need to know if `O=C1C(=C/N=N/c2ccc(Cl)cc2)Nc2ccc(Br)cc21` has measured inhibition not below 40%. Thanks!
Marked response: FALSE

Exam item: Does inhibition meet or surpass 40% for `O=C1C(=C/N=N/c2ccc(Cl)c(Cl)c2)Nc2ccc(Br)cc21` ?
Marked response: FALSE

Exam item: In plain terms: is recorded inhibition at least 40% for `O=C1CCC(=O)C1=CNNc1ccc(Cl)cc1` ?
Marked response: TRUE

Exam item: Reported inhibition at or above 40%? `O=c1c(=NNc2ccc(Cl)cc2)c(=O)c2ccccc12`
Marked response: FALSE
